experimental-system: CRAF (Homo sapiens)
Sequence (P04049 whole entry): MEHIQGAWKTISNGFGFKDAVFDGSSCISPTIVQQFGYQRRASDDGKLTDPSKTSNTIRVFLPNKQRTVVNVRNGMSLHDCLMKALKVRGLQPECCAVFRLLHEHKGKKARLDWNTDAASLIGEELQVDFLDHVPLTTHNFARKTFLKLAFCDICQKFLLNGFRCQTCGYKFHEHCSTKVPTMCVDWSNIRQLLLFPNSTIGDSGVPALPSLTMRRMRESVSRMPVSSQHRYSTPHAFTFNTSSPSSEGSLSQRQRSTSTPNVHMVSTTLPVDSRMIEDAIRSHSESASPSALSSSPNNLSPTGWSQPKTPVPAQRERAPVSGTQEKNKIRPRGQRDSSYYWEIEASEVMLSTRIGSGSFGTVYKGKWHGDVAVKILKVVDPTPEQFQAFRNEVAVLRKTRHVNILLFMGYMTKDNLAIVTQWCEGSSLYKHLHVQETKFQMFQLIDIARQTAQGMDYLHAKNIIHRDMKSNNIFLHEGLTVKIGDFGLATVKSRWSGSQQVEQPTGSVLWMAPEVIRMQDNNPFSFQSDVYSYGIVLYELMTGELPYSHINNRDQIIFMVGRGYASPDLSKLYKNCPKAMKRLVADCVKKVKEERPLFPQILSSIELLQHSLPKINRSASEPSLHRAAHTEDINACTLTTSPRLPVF
method: CRAF kinase activity assay (ADP-Glo)
Assay type: biochemical
measurement-conditions: Table 3
# IC50 per record follows

// known answers, use as guide
Cc1c(F)cccc1S(=O)(=O)Nc1ccc(F)c(Nc2ncnc3cnc(-n4nc(C(=O)N5CCN(C)CC5)c5ccccc54)nc23)c1F :: > 50 nM
Cc1c(F)cccc1S(=O)(=O)Nc1ccc(F)c(Nc2ncnc3cnc(-n4cc(C(=O)N(C)Cc5ccncc5)c5ccccc54)nc23)c1F :: 10 to 50 nM
Cc1c(F)cccc1S(=O)(=O)Nc1ccc(F)c(Nc2ncnc3cnc(-n4cc(C(=O)N5CCOCC5)c5ccccc54)nc23)c1F :: 10 to 50 nM
Cc1c(F)cccc1S(=O)(=O)Nc1ccc(F)c(Nc2ncnc3cnc(-n4cnc5ccccc54)nc23)c1F :: < 10 nM
COc1ccc(S(=O)(=O)Nc2ccc(F)c(Nc3ncnc4cnc(-n5nnc6ccccc65)nc34)c2F)c(C)c1Cl :: 10 to 50 nM

**Query** Input N#CC1CCN(c2cccc3c2ncn3-c2ncc3ncnc(Nc4c(F)ccc(NS(=O)(=O)c5cccc(Cl)c5Cl)c4F)c3n2)CC1 , output reported IC50.
**Result** < 10 nM
